# METHOD_DESCRIPTION: Primary qHTS for inhibitors of nuclear receptor binding SET domain protein 2 (NSD2) in an RCH-ACV wild type WT cells (2C) (AID 1645877); further: nearly all actives have a fitted effect of over 70% in size; further: potency means the concentration at half of the fitted maximal effect
# ASSAY_SETUP: RCH-ACV (leukaemia line) NSD2 WT (2C) viability, CellTiter-Glo, 72 h; series mostly up to 44.9 µM
Results filed as inconclusive are left out. Activity calls are given as the source filed them. The call rests on the fitted dose curve; in most records, active means well fitted inhibition curve with a large enough effect; inconclusive means small, poorly fitted or top-dose-only effect; inactive means no such curve, though single readings can be large or run the other way.
READOUT: Potency

C=C1C(=O)O[C@@H]2C3C(=C(C)[C@@H](O)[C@@H](OC(=O)/C(=C/C)COC(C)=O)[C@@H]12)C(=O)[C@H]1O[C@@]31C (some centres not stated): 1.59 µM (active)
CC(C)=CCC[C@](C)(O[C@@H]1O[C@H](CO[C@@H]2OC[C@@H](O)[C@H](O)[C@H]2O)[C@@H](O)[C@H](O)[C@H]1O)[C@H]1CC[C@]2(C)[C@@H]1[C@H](O)C[C@@H]1[C@@]3(C)CC[C@H](O[C@@H]4O[C@H](CO)[C@@H](O)[C@H](O)[C@H]4O)C(C)(C)[C@@H]3CC[C@]12C: inactive
O=C(NCCCn1ccnc1)c1cc(-c2ccco2)on1: 10.3 µM (active)
CCc1cccc(CC)c1-n1c(C=C(C)C)c(C(=O)N2CCNCC2)cc(-c2nc(-c3ccc(C(F)(F)F)cc3)cs2)c1=O: 10 µM (active)
CC(C)n1nc(C#Cc2ccccc2)c2c(N)ncnc21: 3.25 µM (active)
COc1ccc2nc3n[nH]c(C)c3c(NCCOCCO)c2c1: 3.25 µM (active)
Cc1cc2c(c(=O)o1)C=C1CC[C@H]([C@H](C)Cn3cnc(=N)c4[nH]cnc43)C[C@@H]1O2: inactive

Where do the numbers come from? From PubChem BioAssay (NCATS).
